# target or test system: Growth hormone secretagogue receptor type 1 (Homo sapiens)
# experiment notes: Displacement of [125I]-Ghrelin from human GHSR membranes overexpressing GSH-R1a by scintillation counting
measurement type: Ki (nM)

// worked examples, Ki included
COc1ccc2cccc(Oc3ccc4nc(C)n(C[C@H]5CCCN(C(C)C)C5)c(=O)c4n3)c2n1	3.1
Cc1nc2ncc(Oc3ccc(F)cc3)nc2c(=O)n1C[C@H]1CCCN(C(C)C)C1	3.1

P. Cc1nc2ncc(Oc3ccc(-c4ccccc4)cc3)nc2c(=O)n1C[C@H]1CCCN(C(C)C)C1
Q. Cc1nc2ccc(Oc3ccc(F)cc3)cc2c(=O)n1C[C@H]1CCCN(C(C)C)C1
R. Cc1nc2cnc(Oc3ccc(F)cc3)cc2c(=O)n1C[C@H]1CCCN(C(C)C)C1
// ranking: key=Ki, reverse=True In plain terms: list the labels in the order you were asked to.
R, Q, P
(R: 3.4 nM, Q: 1 nM, P: 0.27 nM)

----------
# experiment notes: Volume of distribution at steady state in Sprague-Dawley rat at 1 mg/kg, iv
# Type: ADME, organism-based
# Design: dose 1 mg/kg, route intravenous
# condition set: in vivo, read-out: Vdss
measurement type: Vd (L/kg)

P. Cc1nc2ccc(Oc3ccc(Cl)cc3F)nc2c(=O)n1C[C@H]1CCCN(C(C)C)C1
Q. Cc1nc2ccc(Oc3ccc(F)cc3)nc2c(=O)n1C[C@H]1CCCN(C(C)C)C1
R. Cc1nc2ncc(Oc3ccc(F)cc3)nc2c(=O)n1C[C@H]1CCCN(C(C)C)C1
Task field, ranking: reported Vd, descending order. Reply with the item labels sorted in the order that was asked for.
Q, P, R
(Q: 11.9 L/kg, P: 6.64 L/kg, R: 2.87 L/kg)

----------
# target or test system: Growth hormone secretagogue receptor type 1 (Homo sapiens, UniProt Q92847)
# Sequence (Q92847 whole entry): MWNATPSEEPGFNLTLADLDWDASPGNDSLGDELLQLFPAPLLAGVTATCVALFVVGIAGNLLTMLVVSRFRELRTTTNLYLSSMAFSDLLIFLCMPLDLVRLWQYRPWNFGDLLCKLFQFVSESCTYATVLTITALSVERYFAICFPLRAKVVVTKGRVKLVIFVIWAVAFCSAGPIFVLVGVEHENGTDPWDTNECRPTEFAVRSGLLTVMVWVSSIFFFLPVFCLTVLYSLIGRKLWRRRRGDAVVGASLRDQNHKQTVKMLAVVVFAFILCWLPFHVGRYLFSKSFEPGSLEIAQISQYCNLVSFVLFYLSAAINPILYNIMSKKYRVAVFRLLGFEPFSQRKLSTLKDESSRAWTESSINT
# experiment notes: Displacement of [125I]-Ghrelin from human GHSR membranes overexpressing GSH-R1a by scintillation counting
measurement type: Ki (nM)

Answered examples (5):
Cc1nc2cnc(Oc3ccc4c(c3)OCO4)cc2c(=O)n1C[C@H]1CCCN(C(C)C)C1	0.3
Cc1nc2ccc(Oc3ccc(F)c4cccnc34)nc2c(=O)n1C[C@H]1CCCN(C(C)C)C1	2.6
Cc1nc2cnc(Oc3ccc4ncsc4c3)cc2c(=O)n1C[C@H]1CCCN(C(C)C)C1	0.1
Cc1nc2ncc(Oc3ccc(-c4ccccc4)cc3)cc2c(=O)n1C[C@H]1CCCN(C(C)C)C1	1.7
Cc1nc2ccc(Oc3ccc(F)cc3)nc2c(=O)n1C[C@H]1CCCN(C(C)C)C1	2

P. Cc1nc2ncc(Oc3ccc4c(c3)ncn4C)nc2c(=O)n1C[C@H]1CCCN(C(C)C)C1
Q. Cc1nc2ncc(Oc3ccc(Br)cc3F)cc2c(=O)n1C[C@H]1CCCN(C(C)C)C1
Of the pair P and Q , name the member with the lesser recorded Ki. Answer by quoting the chosen item's label.
Q

1. Cc1nc2ccc(Oc3ccc(-c4ccccc4)cc3)nc2c(=O)n1C[C@H]1CCCN(C(C)C)C1
2. Cc1nc2ncc(Oc3ccc(F)c4cccnc34)nc2c(=O)n1C[C@H]1CCCN(C(C)C)C1
3. Cc1nc2ncc(Oc3ccc(F)cc3)cc2c(=O)n1C[C@H]1CCCN(C(C)C)C1
4. Cc1nc2ncc(Oc3ccc(Br)cc3F)nc2c(=O)n1C[C@H]1CCCN(C(C)C)C1
Order the items by recorded Ki; the first position goes to the largest value. Please list the labels in the order you were asked to rank them.
3, 2, 1, 4
(3: 6.7 nM, 2: 1.9 nM, 1: 0.4 nM, 4: 0.05 nM)
